- protocol-summary: Population PK analysis of pemigatinib in patients with advanced malignancies
- Format: in vivo, human
- details: human, plasma, oral
endpoint-label: half-life (h)
Respond numerically; units are h and should not be typed.

[ask] Provide only the value of recorded half-life for CCN1C(=O)N(c2c(F)c(OC)cc(OC)c2F)Cc2cnc3[nH]c(CN4CCOCC4)cc3c21
[reply] 16

* * *

- protocol-summary: Population PK analysis of pemigatinib in patients with advanced malignancies
- Assay type: in vivo, human
- details: human, plasma, oral
endpoint-label: Vd/F (L)
Respond numerically; units are L and should not be typed.

[ask] Provide only the value of recorded Vd/F for CCN1C(=O)N(c2c(F)c(OC)cc(OC)c2F)Cc2cnc3[nH]c(CN4CCOCC4)cc3c21
[reply] 122

Source: paper PMC9306536
